molecular target: recombinant eIF4E (Homo sapiens (Human), UniProt P06730); assay: Fluorescence polarization competition assay for eIF4E binding potency; conditions: inhibition of eIF4E/EDA-m7GDP-ATTO-550 binding by 50%; Table 4B calculated values; read-out: IC50
Sequence (P06730 whole entry): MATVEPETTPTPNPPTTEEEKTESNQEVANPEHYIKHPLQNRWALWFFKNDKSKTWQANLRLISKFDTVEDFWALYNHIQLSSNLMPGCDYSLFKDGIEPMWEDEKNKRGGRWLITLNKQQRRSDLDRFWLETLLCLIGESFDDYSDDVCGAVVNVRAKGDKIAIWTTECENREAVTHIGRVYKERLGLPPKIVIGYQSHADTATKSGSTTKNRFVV
pIC50: −log10 of the molar value.
Measurement label: pIC50

Provide the reported pIC50 (system: recombinant eIF4E (Homo sapiens (Human), UniProt P06730)) for `Cc1nc2cc(C(F)(F)F)c(OC(F)F)c(C#N)c2c(=O)n1CCOc1ccc(Cl)cc1-c1ccnc2c(C(=O)O)csc12`
7.71

[1] Cc1cc(-c2cc(Cl)ccc2OCCn2c(C)nc3cc(CN(C)C(C)(C)C)c(OC(F)F)c(C#N)c3c2=O)c2scc(C(=O)O)c2n1
[2] Cc1nc2cnc(C#N)cc2c(=O)n1CCOc1ccc(Cl)cc1-c1ccnc(C(=O)O)c1
Of 1 versus 2 , which is the one with smaller reported pIC50? Selection: enter the item's label.
2
(2: 6.94, 1: 8.53)

Origin of measurements: patent US11286268B1
